experimentSummary: NCI Yeast Anticancer Drug Screen. Data for the mec2-1 strain (AID 157)
cond: S. cerevisiae mec2-1 strain, at 33.0 µM
About 79,000 compounds went through this panel and 15% of them were active in at least one assay; those are over-represented in the sample as a whole. Activity calls are given as the source filed them. Rule as the data show it: active = growth inhibition above about 70%; inactive = the rest.
Your reply should match one of these outcome classes. active, inactive

Use these answered entries as a reference point.
CC(C)(N=Nc1ccc(Cl)cc1)[N+](=O)[O-] ... active
COc1cccc(C(NC2=NCCC=N2)c2cc3c(cc2O)OCO3)c1O (stereo unspecified) ... inactive
N#C/C(=C\NC(=S)Nc1ccc(S(N)(=O)=O)cc1)C(=O)c1ccc2ccccc2c1 ... inactive
CC(=O)O/N=C1C=C/C(=C(/C#N)c2ccccc2)C=C/1C ... active

Please state the recorded outcome for this compound: "CCCCCCCCCCCCCCCCCCNC(=S)/N=C/c1c(O)c2ccccc2[nH]c1=O"
inactive

Please give the result for CC1=CN2C(c3ccccc3)=NON(c3ccc(C)cn3)C2C=C1 (stereo unspecified) too.
inactive

Please give the result for "OB(O)c1ccccc1C#Cc1ccccc1" too.
inactive

Please give the result for "CCN(CC)C(=S)N/N=C(\C)c1ccccc1O" too.
active

Please give the result for COc1ccc(C(C)c2cc3c(cc2OCC(C)=O)OCO3)cc1 (stereo unspecified) too.
inactive

Please give the result for CC1CCC(C2=CSC3CCCCC3N2)CC1 (stereo unspecified) too.
inactive

Please give the result for "CC1=C(C)C(=O)C2=C(OCCO2)C1=O" too.
inactive

====

experimentSummary: NCI Yeast Anticancer Drug Screen. Data for the mlh1 strain (AID 171);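 also: 0% = growth of vehicle-treated control cultures of the same strain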
cond: S. cerevisiae mlh1 strain growth inhibition; at 100.0 µM
This is part of a sample that, as a whole, favours compounds with a hit. Of some 79,000 tested, about 15% had one in any assay. Activity calls are given as the source filed them. No stated cut-off is given here; in the data, active means growth inhibition above about 70%; inactive means the rest.
Your reply should match one of these outcome classes. active, inactive

Use these answered entries as a reference point.
CN(C)N=Nc1ccc(N(C)C)cc1 ... inactive
CCOP(=O)(OCC)/C(C#N)=C/c1cccc(Oc2ccccc2)c1 ... active
N#[N+]c1c([O-])c2ccccc2c2ccccc12 ... active
Cc1cc(O)c(C(C)C)cc1SC#N ... active
CCCCCCCCCCCCOCCOCCOCC(N)=O ... active

Please state the recorded outcome for this molecule: "CCOC(=O)Nc1ccc(C)c(NC(=O)OCC)c1"
inactive

Please give the result for COC(=O)C(Cc1c[nH]c2ccccc12)N1CN(C)c2ccccc2C1=O (stereo not given) too.
active

Please give the result for N#CSCC1COc2ccccc2O1 (stereo not given) too.
active

Please give the result for CC12CCC(CC(=O)/C1=C(/Br)I)C2(C)C (stereo not given) too.
inactive

Please give the result for "CN(C)CCNC(=Cc1ccc2ccccc2[n+]1C)NCCN(C)C" too.
inactive

====

experimentSummary: NCI Yeast Anticancer Drug Screen. Data for the rad50 strain (AID 155);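 also: 0% = growth of vehicle-only cultures of the same strain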
cond: S. cerevisiae rad50 strain growth inhibition; at 50.0 µM; stronger effect = higher value
The panel holds about 79,000 compounds, 15% with a hit somewhere; the sample as a whole holds those more often.
Class membership depends on growth inhibition alone; the intervals are lowest = under 60%, middle = from 60% up to 90%, highest = 90% and over

CCC(/C=C/c1ccccc1)=N\Nc1ccc(Cl)cc1 ... highest
Cc1ccnc2c(O)cccc12 ... highest
O=S(=O)(c1ccccc1)N1CN2CN(C1)CN(S(=O)(=O)c1ccccc1)C2 ... lowest

Entry "CC1=CC(=O)C=CC1=Nc1cc(Cl)c(O)c(Cl)c1" belongs to which category?
middle

Please give the result for "O=C1c2cccc3cccc(c23)C(=O)N1O" too.
middle

Please give the result for "O=Cc1ccccc1C=O" too.
lowest

====

experimentSummary: NCI Yeast Anticancer Drug Screen. Data for the mec2-1 strain (AID 157)
cond: S. cerevisiae mec2-1 strain, at 1.2 µM, stronger effect = higher value
The panel holds about 79,000 compounds, 15% with a hit somewhere; the sample as a whole holds those more often. Active and inactive are the calls of the source. Rule as the data show it: active = growth inhibition above about 70%; inactive = the rest.
measuredQuantity: growth inhibition

CCCCCCCC/C=C\CCCCCCCCN ... 1% (inactive)
Cc1cc(O)c(C(C)C)cc1SC#N ... -26% (inactive)
O=C1c2cccc3cccc(c23)C(=O)N1O ... 5% (inactive)
COC(=O)/C(C#N)=C\NC(=S)C(N)=S ... -5% (inactive)
CCCCCCNCCCNc1c2ccccc2nc2cccc([N+](=O)[O-])c12 ... 4% (inactive)
CCCCCCCCCC(=O)N(CCC)CCC ... -4% (inactive)

Tell me the measured growth inhibition of OC1(c2ccccc2)C2CC=CC2C1(c1ccccc1)c1ccccc1 (stereo not drawn) , please.
-3% (inactive)

Please give the result for "Nc1cc2ccccc2cc1N" too.
-41% (inactive)

Please give the result for CCC[CH2][Ge]([CH2]CCC)([CH2]CCC)[O]C(=O)C(O)c1ccccc1 (stereo not drawn) too.
-1% (inactive)

Please give the result for "c1ccc2nc3c(nc2c1)sc1ccccc13" too.
4% (inactive)

Please give the result for "Cc1cccc2c(Cl)c3cccc(C)c3nc12" too.
-10% (inactive)

Please give the result for "O=Cc1ccccc1C=O" too.
-17% (inactive)

Please give the result for COc1cc(OC)c(CSCC(NC(=O)OCC2c3ccccc3-c3ccccc32)C(=O)O)c(OC)c1 (stereo not drawn) too.
2% (inactive)

====

experimentSummary: NCI Yeast Anticancer Drug Screen. Data for the rad50EPP+ strain (AID 151);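 also: 0% = growth of vehicle-treated control cultures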
cond: S. cerevisiae rad50 mutant strain, at 33.0 µM
The panel holds about 79,000 compounds, 15% with a hit somewhere; the sample as a whole holds those more often. Calls of active or inactive are those of the source. Cut-off read from the data, not from the text of the source: active = growth inhibition above about 70%; inactive = the rest.
Your reply should match one of these outcome classes. 1.0 (active), 0.0 (inactive)

Use these answered entries as a reference point.
CC(C)OP(=O)(OC(C)C)/C(Cl)=N/Nc1ccc([N+](=O)[O-])cc1 ... 1.0
O=C1c2cccc3cccc(c23)C(=O)N1CCNCCN1C(=O)c2cccc3cccc(c23)C1=O ... 0.0
COc1ccc2nc3cccc([N+](=O)[O-])c3c(NCCCCCC(=O)O)c2c1 ... 1.0

Please state the recorded outcome for this compound: "O=C1c2ccccc2C(=O)c2sc(Nc3ccccc3Cl)nc21"
1.0

====

experimentSummary: NCI Yeast Anticancer Drug Screen. Data for the rad50EPP+ strain (AID 151);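 also: 0% = growth of vehicle-treated control cultures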
cond: S. cerevisiae rad50 mutant strain, at 11.0 µM, stronger effect = higher value
The panel holds about 79,000 compounds, 15% with a hit somewhere; the sample as a whole holds those more often.
Listed here are compounds together with their documented growth inhibition.
// note: answer is a bare numeric in %

COc1cc([N+](=O)[O-])c2ncccc2c1Br ... 29
CCN(CC)CCNc1ccc2nc(C)n3c4ccc(OC)cc4c(=O)c1c23 ... 3
O=C(NCCCCN1CC2CCCC2C1)C(C1CCCCC1)C1CCCCC1 (stereo not given) ... 2
N#CCC(=O)N/N=C(\c1ccccc1)C(c1ccccc1)C1(O)C(=O)Nc2c(Cl)ccc(Cl)c21 (stereo not given) ... 15

Tell me the measured growth inhibition of CCCCCCCCN1COCC(COc2ccccc2C)OC1 (stereo not given) , please.
-2

Please give the result for "CCCCCc1c(CCCC)c(=O)[nH]c2cc(CNCC(OC)OC)ccc12" too.
3

Please give the result for "COc1ccc2nc3cccc([N+](=O)[O-])c3c(NCCNCCN(C)C)c2c1" too.
0

Please give the result for "S=C1C(=Nc2ccccc2)N(c2ccccc2)/C(=N\c2ccccn2)N1c1ccccc1" too.
-3

Please give the result for "CCN(CC)CCCNc1ccc([N+](=O)[O-])c2nc3ccc(OC)cc3c(NCCCN(CC)CC)c12" too.
4

Please give the result for "Cc1ccc([N+](=O)[O-])c2c(NCCC[N+](C)(C)[O-])c3ccccc3nc12" too.
-6

====

experimentSummary: NCI Yeast Anticancer Drug Screen. Data for the rad50 strain (AID 155);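 also: 0% = growth of vehicle-only cultures of the same strain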
cond: S. cerevisiae rad50 strain growth inhibition; at 3.7 µM; stronger effect = higher value
About 79,000 compounds went through this panel and 15% of them were active in at least one assay; those are over-represented in the sample as a whole.
measuredQuantity: growth inhibition (%)
// note: answer is a bare numeric in %

Tell me the measured growth inhibition of "COc1ccc2nc3cccc([N+](=O)[O-])c3c(NCCNCCO)c2c1" , please.
81

Please give the result for "O=C(O)/C=C\C(=O)Nc1ccc2c(c1)Cc1cc(Cl)ccc1-2" too.
-4

Please give the result for "COc1ccc(-c2cc(-c3cc(C)cc(Cl)c3O)nc3[nH]c(=S)[nH]c(=S)c23)cc1" too.
5

Please give the result for "CC1(C)CC(=O)C(C(=O)Nc2cccs2)=C(O)C1" too.
16

Please give the result for "Oc1ccc(N=Nc2ccc(Cl)cc2)cc1" too.
30

====

experimentSummary: NCI Yeast Anticancer Drug Screen. Data for the mlh1 strain (AID 171);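 also: 0% = growth of vehicle-treated control cultures of the same strain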
cond: S. cerevisiae mlh1 strain growth inhibition; at 11.0 µM
The panel holds about 79,000 compounds, 15% with a hit somewhere; the sample as a whole holds those more often. Activity calls are given as the source filed them. No stated cut-off is given here; in the data, active means growth inhibition above about 70%; inactive means the rest.
Your reply should match one of these outcome classes. active, inactive

Use these answered entries as a reference point.
COc1ccc2cc(C(C)C(=O)N3CCOC3=O)ccc2c1 (stereo not given) ... inactive
NC(CCCCCCCCCCCCC(N)C(=O)c1ccccc1)C(=O)c1ccccc1 (stereo not given) ... inactive
CCCN=Cc1cc(Cc2ccc(O)c(C=NCCC)c2)ccc1O ... active
CCN(CC)CCNc1ccc2ncn3c4ccc(O)cc4c(=O)c1c23 ... inactive
COc1ccc(/C=C2\SC(=S)N(/C=C3\C(=O)N(c4ccccc4)N=C3C)C2=O)cc1OC ... inactive
OC(Cc1cccc2ccccc12)CN1CCC(c2ccccc2)CC1 (stereo not given) ... inactive

Please state the recorded outcome for this compound: "CCCCCCCN(CCCCCCC)CC(=O)c1ccc2cc(Cl)c3ccccc3c2c1"
active

Please give the result for "CCC[CH2][Sn]([CH2]CCC)([CH2]CCC)/[C](=C/[Si](C)(C)c1ccccc1)c1ccc2c(c1)OCO2" too.
active

Please give the result for "CCOC(=O)/C(=C/c1cccc(Cl)c1)N(CC)CC" too.
inactive

Please give the result for "CCCNC(=O)OCc1c(COC(=O)NCCC)c(-c2ccc(Cl)c(Cl)c2)n2c1CCC2" too.
inactive

Entry source: PubChem BioAssay (NCI)
